Documented growth across a set of compounds
# Tested on: T-47D breast
# test-summary: NCI-60 one-dose screen, 48 h (100 = growth as untreated, 0 = no growth, -100 = all killed)
# details: 10 µM
Compounds without any hit were thinned out: in the full panel of roughly 83,000, 20% have a hit.
Expressed in %, but write only the number.

Reference set, count: 4
{"chemical-string": "CCCn1c(=O)c2[nH]c(-c3ccc(OCc4nc5ccc(F)cc5[nH]4)cc3)nc2n(CCC)c1=O", "growth (%)": -17.8}
{"chemical-string": "COc1ccc(-c2c(N)c(=O)n(C)c3ccccc23)cc1", "growth (%)": 57.2}
{"chemical-string": "O=C(CSc1nnc(-c2ccc3nc(-c4ccccc4)[nH]c3c2)o1)Nc1ccc(Cl)cc1", "growth (%)": 23.8}
{"chemical-string": "Nc1nnc(-c2c[nH]c3ncccc23)c(-c2c[nH]c3ccc(Br)cc23)n1", "growth (%)": 22.4}

## Input // fetch T-47D breast growth for O=C(c1ccc([N+](=O)[O-])c([N+](=O)[O-])c1O)n1[nH]c(=O)c2ccccc2c1=O
## Output 49.8

---

# Tested on: UACC-62 melanoma
# test-summary: NCI-60 one-dose screen, 48 h (100 = growth as untreated, 0 = no growth, -100 = all killed)
# details: 10 µM
About 83,000 compounds went through this panel and 20% of them were active in at least one assay; those are over-represented in the sample as a whole.
measured-parameter: growth (%)
Expressed in %, but write only the number.

Reference set, count: 4
{"molecule": "C=CCn1c(SCC(=O)Nc2ccc(C(=O)/C=C/c3ccccc3)cc2)nnc1-c1c[nH]c2ccccc12", "value-units": "%", "growth": 47}
{"molecule": "NS(=O)(=O)c1ccc(NC(=O)CSc2ccc(-c3ccc(Cl)cc3)nn2)c(Br)c1", "value-units": "%", "growth": 65.4}
{"molecule": "COc1ccccc1NCc1ccc(CO)n1-c1ccc(C)cc1", "value-units": "%", "growth": 83.8}
{"molecule": "C=C1CCC2C3(C)COC(c4ccccc4F)OC3CCC2(C)C1C/C=C1/C(=O)OCC1O (stereo not given)", "value-units": "%", "growth": -7.01}

## Input // fetch UACC-62 melanoma growth for CCN1CCN(c2ccc(NC(=O)Nc3ccc(-c4cc(C(=O)NC(C)C)c5ncccc5n4)cc3)cc2C(F)(F)F)CC1
## Output -93.3

---

# Test system: SN12C renal
# test-summary: NCI-60 one-dose screen, 48 h
# details: 10 µM
Compounds without any hit were thinned out: in the full panel of roughly 83,000, 20% have a hit. Activity calls are given as the source filed them. Rule for the calls: active = growth percent below 10; inactive = the rest.
In this exercise, the only acceptable responses are Y = active, N = inactive

{"compound": "COc1ccc2ncc(C#Cc3cncc(C(=O)Nc4ccc(CN5CCN(C)CC5)c(C(F)(F)F)c4)c3)n2n1", "group-label": "Y"}

## Input Could you kindly confirm the outcome this assay logged for O=C(CS(=O)(=O)c1oc(-c2ccc(Cl)cc2)nc1S(=O)(=O)c1ccc(Cl)cc1)N1CCOCC1 ?
## Output N

## Input Could you kindly confirm the outcome this assay logged for NS(=O)(=O)c1ccc(NC(=O)CSc2ccc(-c3ccccc3)nn2)c(Br)c1 ?
## Output N

## Input Could you kindly confirm the outcome this assay logged for O=C(CSc1nnc(-c2ccc3nc(-c4ccccc4)[nH]c3c2)o1)Nc1ccc(Br)cc1 ?
## Output N

## Input Could you kindly confirm the outcome this assay logged for Cc1ccc(-c2nc3ccc(C(=O)N=Nc4c(O)[nH]c5ccc(Cl)cc45)cc3[nH]2)cc1 ?
## Output N

## Input Could you kindly confirm the outcome this assay logged for O=C(CSc1nnc(-c2c[nH]c3ccccc23)n1-c1ccccc1)c1ccc(Br)cc1 ?
## Output N

## Input Could you kindly confirm the outcome this assay logged for O=C(CNc1nc(-c2ccccc2)cs1)Nc1ccccc1 ?
## Output Y
